# Lookup of reported IRF reporter keyed by entry
- System: RAW-Dual (murine macrophage reporter line)
- assay-summary: IRF reporter (Lucia luciferase) activity fold change vs agonist alone; higher = enhanced IRF activity
- condition-summary: modulator concentration 10 µM; agonist: LPS 0.1 ug/mL
recorded-metric: IRF reporter

| molecule | observed-value |
| --- | --- |
| COc1ccc(CNC23CC4CC(CC(C4)C2)C3)cc1OC | 1.1 |
| CC(C=CC1=C(C)CCCC1(C)C)=CC=CC(C)=CC(=O)O | 1.1 |
| O=C(CN1CCCCC1)NN=Cc1ccccc1OCc1ccccc1 | 1.02 |
| CN(C)CCOC(c1ccc(Cl)cc1)c1ccccn1.O=C(O)/C=C\C(=O)O (stereo unspecified) | 1.36 |
| COC(=O)C1=C(C)NC(=O)CC1c1c(F)cccc1Cl (stereo unspecified) | 1.03 |
| O=C(Cc1ccc(Cl)cc1)Nc1ccc2oc(-c3c(F)c(F)c(F)c(F)c3F)nc2c1 | 1.32 |
| O=C(COc1ccc2ccccc2c1)NCC#CCN1CCCCC1 | 1.27 |
| CN(C)c1nc(CNS(C)(=O)=O)nc(N2CCCCC2)n1 | 1.03 |
| O=C(NCC1CCN(C(=O)c2ccncc2)CC1)c1ccc(Oc2ccccc2)cc1 | 0.882 |
| OCCCNCC(O)Cn1c2ccc(Br)cc2c2cc(Br)ccc21 (stereo unspecified) | 1.19 |
| O=C(O)CCCNC(=O)c1cccc([N+](=O)[O-])c1 | 1.11 |
